Recorded values, source patent US9421209B2.

OBSERVATION TYPE: melting point

COMPOUND | melting point
CC(c1oc2ccccc2c(=O)c1-c1cccc(F)c1)n1nc(-c2ccc(F)nc2)c2c(N)ncnc21 (stereo not drawn) | 203 to 206 °C
Nc1ncnc2c1c(-c1cc(F)c(O)c(F)c1)nn2Cc1oc2ccc(F)cc2c(=O)c1-c1cccc(F)c1 [Example 127a] | 274 to 278 °C
Nc1ncnc2c1ncn2Cc1oc2ccccc2c(=O)c1-c1ccccc1 | 173 to 175 °C

Dear colleague, could you please provide melting point for the compounds listed below?
1. CC(c1oc2ccc(F)cc2c(=O)c1-c1ccccc1)n1cnc2c(N)ncnc21 (stereo not drawn)
2. CC(c1oc2ccccc2c(=O)c1-c1ccc(F)cc1)n1cnc2c(N)ncnc21 (stereo not drawn)
3. CC(c1oc2ccccc2c(=O)c1-c1cccc(F)c1)n1nc(-c2ccc3cc[nH]c3c2)c2c(N)ncnc21 (stereo not drawn)
4. Nc1ncnc2c1ncn2Cc1oc2ccccc2c(=O)c1-c1cccc(F)c1
5. Cc1n[nH]c(C)c1-c1nn(C(C)c2oc3ccccc3c(=O)c2-c2cccc(F)c2)c2ncnc(N)c12 (stereo not drawn)
6. CC(c1oc2ccccc2c(=O)c1-c1cccc(F)c1)n1ccc2c(Cl)ncnc21 (stereo not drawn)

A:
1: 264 to 269 °C; 2: 210 to 212 °C; 3: 222 to 225 °C; 4: 224 to 227 °C; 5: 240 to 243 °C; 6: 71 to 75 °C
